# assay_protocol: qHTS profiling of the MIPE4 collection as inhibitors of Plasmodium falciparum (DD2) proliferation (AID 743345)
# reported_conditions: P. falciparum Dd2 in erythrocytes, SYBR Green DNA, 72 h; at 28.5 µM (top of the series) unless noted
test_readout: parasite growth remaining, % of DMSO control (lower = more inhibition)
Dear colleague, please send the value followed by its unit.

// known answers, use as guide
compound	result
C=CCn1c(=O)c2cnc(Nc3ccc(N4CCN(C)CC4)cc3)nc2n1-c1cccc(C(C)(C)O)n1	13.2%
COc1ccc2c(OCc3nnc4ccc(-c5ccccc5)nn34)ccnc2c1	97.5%
CC1(O)CC(c2nc(-c3ccc4ccc(-c5ccccc5)nc4c3)c3c(N)nccn23)C1 (stereo not given)	19%
CCNC(=O)Nc1ccc2ncc(Nc3ccc(C)cc3)nc2n1	71.6%
COc1cc(=C2C=c3ccccc3=N2)[nH]c1=Cc1[nH]c(C)cc1C	7.38%
Cc1[nH]c2ccccc2c1CCNCc1ccc(C=CC(=O)NO)cc1	7.14%
COC(=O)[C@]12CCC(C)(C)C[C@@H]1[C@@H]1C(=O)C=C3[C@@]4(C)C=C(C#N)C(=O)C(C)(C)[C@@H]4CC[C@@]3(C)[C@]1(C)CC2	7.23%
COc1cc2c(cc1-c1c(C)noc1C)ncc1[nH]c(=O)n([C@H](C)c3ccccn3)c12	97.3%

Returns the measured parasite growth remaining, % of DMSO control (lower = more inhibition) for the input compound. Input: CN1CCN(c2ccc3nc(-c4c(N)c5c(F)cccc5[nH]c4=O)[nH]c3c2)CC1 6.04%

Also Nc1ncnc2c1c(-c1cccc(OCc3ccccc3)c1)cn2C1CC(CN2CCCC2)C1 (stereo not given) , if possible. 7.32%

###

# Tested on: CP252
# assay_protocol: qHTS profiling for inhibitors of Plasmodium falciparum proliferation (AID 504749); note: nearly all actives have a fitted effect of over 60% in size
# reported_conditions: P. falciparum in erythrocytes, SYBR Green DNA, 72 h; series mostly up to 28.7 µM
# Protocol: NIH National Institute of Allergy and Infectious Diseases [NIAID] NIH Chemical Genomics Center [NCGC] […] Because mature erythrocytes lack DNA, only Plasmodium-derived DNA is detected. NCGC Assay Protocol Summary: The SYBR Green viability assay was adapted from a method described previously (Plouffe et al., 2008). […] The following morning, fluorescence intensity at 485(14) nm excitation and 535(25) nm emission wavelengths was measured on an EnVision (Perkin Elmer) plate reader. […]
Results filed as inconclusive are left out. Calls of active or inactive are those of the source. The call rests on the fitted dose curve; in most records, active means well fitted inhibition curve with a large enough effect; inconclusive means small, poorly fitted or top-dose-only effect; inactive means flat fitted curve, though single readings scatter.
Choose the fitting class; nothing outside t (active), f (inactive) is accepted.

Sample answers from the record:
molecule	group
O=c1[nH]c(=O)n(C2CCCO2)cc1F (configuration not stated)	f
Nc1ccc(S(=O)(=O)Nc2ncccn2)cc1	f
Nc1ccn([C@@H]2CS[C@H](CO)O2)c(=O)n1	f

Outcome? CC[C@H]1CN2CCc3cc(OC)c(OC)cc3[C@H]2C[C@@H]1C[C@@H]1NCCc2cc(OC)c(OC)cc21 t

Also O=C(O)CO.[NH2-].[NH2-].[Pt+2] , if possible. f

Also COc1cc(C(=O)NS(=O)(=O)c2ccccc2C)ccc1Cc1cn(C)c2ccc(NC(=O)OC3CCCC3)cc12 , if possible. f

Also Nc1ccn([C@@H]2O[C@H](CO)[C@H](O)C2(F)F)c(=O)n1 , if possible. t

###

# assay_protocol: Quantitative High-Throughput drug screen in 47 multiple myeloma cell lines against the NCATS MIPE library collection: XG6_PLB cell viability assay (AID 1919865); note: nearly all actives have a fitted effect of over 40% in size
# reported_conditions: XG6 myeloma viability, CellTiter-Glo ATP luminescence, 48 h; series mostly up to 45.8 µM
Records with an inconclusive call do not appear. Active and inactive are the calls of the source. Calls follow the shape of the dose curve; as a rule, active = well fitted cell-killing curve with a large enough effect; inconclusive = small, poorly fitted or top-dose-only effect, or effect the other way; inactive = no such curve, though single readings can be large or run the other way.
Choose the fitting class; nothing outside active, inactive is accepted.

Sample answers from the record:
molecule	group
CC(C)(C)c1cnc(CSc2cnc(NC(=O)C3CCNCC3)s2)o1	active
O=C(O)CO.[NH2-].[NH2-].[Pt+2]	inactive
COc1ccc(C(=O)CC2(O)C(=O)Nc3c(Cl)ccc(Cl)c32)cc1 (centres undefined)	active

Outcome? COc1ccc(-c2cc3c(C)nc(N)nc3n(C3CCC(OCCO)CC3)c2=O)cn1 (centres undefined) active

Also COc1cc(C(C)C)c2c(c1)S(=O)(=O)N(COc1cc(=O)n3cccc(OCCN4CCCCC4)c3n1)C2=O , if possible. active

Also Cc1c(NC(=O)OC[C@@H]2COCCN2)cn2ncnc(Nc3ccc4c(cnn4Cc4cccc(F)c4)c3)c12 , if possible. active

Also CCS(=O)(=O)c1cccc(-c2cc(C(=O)NC3CCN(C)CC3)c(C)c3[nH]c4ncc(C)cc4c23)c1 , if possible. active

Also CC(=O)OCC(=O)[C@@]1(O)[C@H](C)C[C@H]2[C@@H]3C=C(C)C4=Cc5c(cnn5-c5ccccc5)C[C@]4(C)[C@@H]3[C@@H](O)C[C@@]21C , if possible. active

Also COCCn1c2c([n+](Cc3cnccn3)c1C)C(=O)c1ccccc1C2=O , if possible. active

###

# Test system: CP185
# assay_protocol: qHTS profiling for inhibitors of Plasmodium falciparum proliferation (AID 504749); note: nearly all actives have a fitted effect of over 60% in size
# reported_conditions: P. falciparum in erythrocytes, SYBR Green DNA, 72 h; series mostly up to 28.7 µM
Results filed as inconclusive are left out. Active and inactive are the calls of the source. Calls follow the shape of the dose curve; as a rule, active = well fitted inhibition curve with a large enough effect; inconclusive = small, poorly fitted or top-dose-only effect; inactive = flat fitted curve, though single readings scatter.
Choose the fitting class; nothing outside active, inactive is accepted.

Outcome? CC[C@H]1CN2CCc3cc(OC)c(OC)cc3[C@H]2C[C@@H]1C[C@@H]1NCCc2cc(OC)c(OC)cc21 active

Also CN1c2cc(O)c(N=NC(N)=O)cc2CC1S(=O)(=O)O (centres undefined) , if possible. inactive

Also Nc1ccn([C@@H]2O[C@H](CO)[C@H](O)C2(F)F)c(=O)n1 , if possible. active

Also COC(=O)C1=C(C)NC(C)=C(C(=O)OCCN2CCN(C(c3ccccc3)c3ccccc3)CC2)C1c1cccc([N+](=O)[O-])c1 (centres undefined) , if possible. active

###

# System: Hek293T
# assay_protocol: Primary qHTS to identify gynecologic anti-cancer compounds using libraries of approved drugs and bioactive compounds (AID 1345084); note: nearly all actives have a fitted effect of over 55% in size
# reported_conditions: Gynecologic cancer cell panel viability, ATPlite luminescence, 48 h, control line for the selectivity index; series mostly up to 57.5 µM
Records with an inconclusive call do not appear. Calls of active or inactive are those of the source. Calls come from the whole dose curve; as a rule, active = well fitted cell-killing curve with a large enough effect; inconclusive = small, poorly fitted or top-dose-only effect, or effect the other way; inactive = flat fitted curve, though single readings scatter.
Choose the fitting class; nothing outside active, inactive is accepted.

molecule	experimental_system	group
COC(=O)C1=C(C)NC(C)=C(C(=O)OCCN2CCN(C(c3ccccc3)c3ccccc3)CC2)C1c1cccc([N+](=O)[O-])c1 (stereo unspecified)	Hek293T	inactive
COc1cc2c(cc1-c1c(C)noc1C)ncc1[nH]c(=O)n([C@H](C)c3ccccn3)c12	Hek293T	inactive
Cc1ccc(C(N)=O)cc1Nc1nccc(-c2cn(C(C)C)c3cnccc23)n1	Hek293T	active
CS(=O)(=O)N1CCN(Cc2cc3nc(-c4cccc5[nH]ncc45)nc(N4CCOCC4)c3s2)CC1	Hek293T	active
C=CC(=O)N1CCC[C@@H](n2nc(-c3ccc(Oc4ccccc4)cc3)c3c(N)ncnc32)C1	Hek293T	inactive

Outcome? CCCCCCCCCC(=O)N[C@@H](Cc1c[nH]c2ccccc12)C(=O)N[C@H](CC(N)=O)C(=O)N[C@@H](CC(=O)O)C(=O)N[C@@H]1C(=O)NCC(=O)N[C@@H](CCCN)C(=O)N[C@@H](CC(=O)O)C(=O)N[C@H](C)C(=O)N[C@@H](CC(=O)O)C(=O)NCC(=O)N[C@H](CO)C(=O)N[C@@H]([C@@H](C)CC(=O)O)C(=O)N[C@@H](CC(=O)c2ccccc2N)C(=O)O[C@@H]1C inactive

###

# assay_protocol: Cell Proliferation Assay against the TMD8 Cell Line (Caspase readout at 8 hrs) (AID 651713);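 for caspase activation: 0% = DMSO and 100% = 9.2 µM bortezomib caspase signal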
# reported_conditions: TMD8 lymphoma cells, caspase activation luminescence; series mostly up to 46.1 µM
Results filed as inconclusive are left out. Active and inactive are the calls of the source. Calls come from the whole dose curve; as a rule, active = well fitted activation curve with a large enough effect; inconclusive = small, poorly fitted or top-dose-only effect, or another doubt; inactive = no such curve, though single readings can be large or run the other way.
Choose the fitting class; nothing outside active, inactive is accepted.

Sample answers from the record:
compound	group
CNc1nccc(-c2cccnc2Oc2cc(C(=O)Nc3cccc(C(F)(F)F)c3)ccc2C)n1	inactive
COc1ccc(CC2SC(=O)NC2=O)cc1C(=O)NCc1ccc(C(F)(F)F)cc1 (stereo not drawn)	inactive
C=CC(=O)Nc1cccc(Oc2nc(Nc3ccc(N4CCN(C)CC4)cc3OC)ncc2Cl)c1	active
CN1CCN(c2cc(C(=O)Nc3ccc4c(c3)-c3c(c(C(N)=O)nn3-c3ccc(F)cc3)CC4)c(Cl)cn2)CC1	active
C1Cc2[nH]nc(-c3nn[nH]n3)c2C1	inactive
CC(=O)OCC(=O)[C@@]1(O)[C@H](C)C[C@H]2[C@@H]3C=C(C)C4=Cc5c(cnn5-c5ccccc5)C[C@]4(C)[C@@H]3[C@@H](O)C[C@@]21C	inactive
CC1(C)CCC(c2ccc(Cl)cc2)=C(CN2CCN(c3ccc(C(=O)NS(=O)(=O)c4ccc(N[C@H](CCN5CCOCC5)CSc5ccccc5)c(S(=O)(=O)C(F)(F)F)c4)cc3)CC2)C1	active

Outcome? CC(C)=CCCC(C)=CCCC(C)=CCSc1ccccc1C(=O)O inactive
